- target or test system: Pa MurB (Pseudomonas aeruginosa, UniProt Q9HZM7)
- Sequence (Q9HZM7 1-339): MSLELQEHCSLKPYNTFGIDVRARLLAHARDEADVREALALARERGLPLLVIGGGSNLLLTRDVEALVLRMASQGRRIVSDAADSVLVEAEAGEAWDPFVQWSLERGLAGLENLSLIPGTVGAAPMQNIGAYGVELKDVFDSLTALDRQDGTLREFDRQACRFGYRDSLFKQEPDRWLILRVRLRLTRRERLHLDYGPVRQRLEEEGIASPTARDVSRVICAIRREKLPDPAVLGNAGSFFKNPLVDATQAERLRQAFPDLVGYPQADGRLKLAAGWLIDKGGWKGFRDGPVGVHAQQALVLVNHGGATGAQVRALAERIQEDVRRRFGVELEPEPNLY
- method: Isothermal titration calorimetry
- Assay type: binding
- experimental setup: Table 4; LE = −(RTlnKd)/(number of heavy atoms)
Consider the following compounds and their measured LE readings.

Consider the following illustrative entries.
Cc1cccc(-n2ncc(C(=O)O)c2C(F)(F)F)c1C [Fragment 38]; 0.27 kcal/mol per heavy atom
Cc1ccc(-n2ncc(C(=O)O)c2C(F)(F)F)c(C)c1 [Fragment 39]; 0.28 kcal/mol per heavy atom
Cc1ccc(C)c(-n2ncc(C(=O)O)c2C(F)(F)F)c1 [Fragment 40]; 0.26 kcal/mol per heavy atom
Cc1cc([N+](=O)[O-])ccc1-n1ncc(C(=O)O)c1C(F)(F)F [Fragment 36]; 0.23 kcal/mol per heavy atom
Cc1ccccc1-n1ncc(C(=O)O)c1C(F)(F)F [Fragment 32]; 0.31 kcal/mol per heavy atom
O=C(O)c1cnn(-c2c(Cl)cccc2Cl)c1C(F)(F)F [Fragment 42]; 0.29 kcal/mol per heavy atom

The record that follows has no LE shown yet.
Incoming: Report LE, nothing else, for this compound: O=C(O)c1cnn(-c2ccc(Cl)c(Cl)c2)c1C(F)(F)F [Fragment 43]
Outgoing: 0.31 kcal/mol per heavy atom

The measured values listed here are drawn from paper PMC7614804.
